All figures here come from ChEMBL document CHEMBL1156861.

- EXPERIMENTAL_SYSTEM: Cannabinoid receptor 1 (Homo sapiens, UniProt P21554)
- Sequence (P21554 whole entry): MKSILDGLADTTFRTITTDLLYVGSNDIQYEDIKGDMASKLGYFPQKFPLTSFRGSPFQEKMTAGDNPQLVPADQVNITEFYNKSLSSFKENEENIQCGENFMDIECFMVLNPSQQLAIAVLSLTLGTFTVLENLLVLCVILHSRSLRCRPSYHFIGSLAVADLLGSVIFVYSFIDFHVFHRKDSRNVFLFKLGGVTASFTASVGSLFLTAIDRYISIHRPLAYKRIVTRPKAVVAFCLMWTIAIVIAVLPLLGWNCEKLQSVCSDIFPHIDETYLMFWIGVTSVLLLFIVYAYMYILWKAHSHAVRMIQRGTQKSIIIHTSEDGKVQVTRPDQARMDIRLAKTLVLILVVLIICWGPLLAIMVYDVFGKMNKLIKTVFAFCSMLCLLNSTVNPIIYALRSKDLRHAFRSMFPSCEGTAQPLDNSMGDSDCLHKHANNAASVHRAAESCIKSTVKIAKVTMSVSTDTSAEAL
pKi: −log10 of the molar value.
The following compounds are shown together with reported pKi values.

Record excerpt, results attached:
CHEMICAL_STRING: CCCCCc1cc2c(c(C(=O)NCC(N)=O)c1)[C@@H]1C=C(C)CC[C@H]1C(C)(C)O2
TEST_READOUT: pKi
MEASURED_RESULT: < 5.52
//
CHEMICAL_STRING: CCCCCc1cc(CNS(C)(=O)=O)c2c(c1)OC(C)(C)[C@@H]1CCC(C)=C[C@@H]21
TEST_READOUT: pKi
MEASURED_RESULT: < 5.52

Tested on Cannabinoid receptor 1 (Homo sapiens, UniProt P21554): "CCCCCc1cc(CNC(C)=O)c2c(c1)OC(C)(C)[C@@H]1CCC(C)=C[C@@H]21" . Observed pKi: < 5.52
